Assay: Cytotoxicity against human RPE-1 cells assessed as reduction in cell viability measured after 24 hrs by MTT assay
Format: toxicity, cell-based
Details: RPE-1 cells (TERT-RPE1)
Reported property: IC50 at 24 h (µM)

>  <Compound>
CC(C)Cc1ccc(C(C)C(=O)OCCCCC[P+](c2ccc(F)cc2)(c2ccc(F)cc2)c2ccc(F)cc2)cc1 (stereo not given)

>  <Unit of measurement>
µM

>  <Result comparator>
=

>  <Recorded value>
35

$$$$
>  <Compound>
CC(C)Cc1ccc(C(C)C(=O)O)cc1 (stereo not given)

>  <Unit of measurement>
µM

>  <Result comparator>
>

>  <Recorded value>
40

$$$$
>  <Compound>
CC(C)Cc1ccc(C(C)C(=O)OCCCCC[P+](c2ccccc2)(c2ccccc2)c2ccccc2)cc1 (stereo not given)

>  <Unit of measurement>
µM

>  <Result comparator>
>

>  <Recorded value>
40

$$$$
>  <Compound>
COc1ccc([P+](CCCCCOC(=O)C(C)c2ccc(CC(C)C)cc2)(c2ccc(OC)cc2)c2ccc(OC)cc2)cc1 (stereo not given)

>  <Unit of measurement>
µM

>  <Result comparator>
>

>  <Recorded value>
40

$$$$
>  <Compound>
COc1ccc2c(c1)c(CC(=O)O)c(C)n2C(=O)c1ccc(Cl)cc1

>  <Unit of measurement>
µM

>  <Result comparator>
>

>  <Recorded value>
40

$$$$
>  <Compound>
COc1ccc2c(c1)c(CC(=O)OCCCCC[P+](c1ccccc1)(c1ccccc1)c1ccccc1)c(C)n2C(=O)c1ccc(Cl)cc1

>  <Unit of measurement>
µM

>  <Result comparator>
=

>  <Recorded value>
22

$$$$
>  <Compound>
COc1ccc2c(c1)c(CC(=O)OCCCCC[P+](c1ccc(F)cc1)(c1ccc(F)cc1)c1ccc(F)cc1)c(C)n2C(=O)c1ccc(Cl)cc1

>  <Unit of measurement>
µM

>  <Result comparator>
=

>  <Recorded value>
11.2

$$$$
>  <Compound>
COc1ccc([P+](CCCCCOC(=O)Cc2c(C)n(C(=O)c3ccc(Cl)cc3)c3ccc(OC)cc23)(c2ccc(OC)cc2)c2ccc(OC)cc2)cc1

>  <Unit of measurement>
µM

>  <Result comparator>
=

>  <Recorded value>
35.2

$$$$
>  <Compound>
Cc1ccc([P+](CCCCCOC(=O)C(C)c2ccc(CC(C)C)cc2)(c2ccc(C)cc2)c2ccc(C)cc2)cc1 (stereo not given)

>  <Unit of measurement>
µM

>  <Result comparator>
>

>  <Recorded value>
40

$$$$
>  <Compound>
COc1ccc2c(c1)c(CC(=O)OCCCCC[P+](c1ccc(C)cc1)(c1ccc(C)cc1)c1ccc(C)cc1)c(C)n2C(=O)c1ccc(Cl)cc1

>  <Unit of measurement>
µM

>  <Result comparator>
=

>  <Recorded value>
10.2

$$$$

====

Test system: MCF7
Experiment: Cytotoxicity against human MCF7 cells assessed as reduction in cell viability measured after 24 hrs by MTT assay
Type: functional, cell-based
Settings: MCF7, 24 h
pIC50: −log10 of the molar value.
Reported property: pIC50

>  <Compound>
Cc1ccc([P+](CCCCCOC(=O)C(C)c2ccc(CC(C)C)cc2)(c2ccc(C)cc2)c2ccc(C)cc2)cc1 (stereo not given)

>  <Tested target>
MCF7

>  <Result comparator>
=

>  <Recorded value>
4.59

$$$$
>  <Compound>
CC(C)Cc1ccc(C(C)C(=O)O)cc1 (stereo not given)

>  <Tested target>
MCF7

>  <Result comparator>
<

>  <Recorded value>
4.30

$$$$
>  <Compound>
COc1ccc2c(c1)c(CC(=O)OCCCCC[P+](c1ccccc1)(c1ccccc1)c1ccccc1)c(C)n2C(=O)c1ccc(Cl)cc1

>  <Tested target>
MCF7

>  <Result comparator>
=

>  <Recorded value>
6.00

$$$$
>  <Compound>
COc1ccc2c(c1)c(CC(=O)O)c(C)n2C(=O)c1ccc(Cl)cc1

>  <Tested target>
MCF7

>  <Result comparator>
<

>  <Recorded value>
4.30

$$$$
>  <Compound>
CC(C)Cc1ccc(C(C)C(=O)OCCCCC[P+](c2ccccc2)(c2ccccc2)c2ccccc2)cc1 (stereo not given)

>  <Tested target>
MCF7

>  <Result comparator>
=

>  <Recorded value>
4.99

$$$$
>  <Compound>
COc1ccc2c(c1)c(CC(=O)OCCCCC[P+](c1ccc(C)cc1)(c1ccc(C)cc1)c1ccc(C)cc1)c(C)n2C(=O)c1ccc(Cl)cc1

>  <Tested target>
MCF7

>  <Result comparator>
=

>  <Recorded value>
5.24

$$$$
>  <Compound>
COc1ccc([P+](CCCCCOC(=O)Cc2c(C)n(C(=O)c3ccc(Cl)cc3)c3ccc(OC)cc23)(c2ccc(OC)cc2)c2ccc(OC)cc2)cc1

>  <Tested target>
MCF7

>  <Result comparator>
=

>  <Recorded value>
5.35

$$$$
>  <Compound>
CC(C)Cc1ccc(C(C)C(=O)OCCCCC[P+](c2ccc(F)cc2)(c2ccc(F)cc2)c2ccc(F)cc2)cc1 (stereo not given)

>  <Tested target>
MCF7

>  <Result comparator>
<

>  <Recorded value>
4.30

$$$$
>  <Compound>
COc1ccc2c(c1)c(CC(=O)OCCCCC[P+](c1ccc(F)cc1)(c1ccc(F)cc1)c1ccc(F)cc1)c(C)n2C(=O)c1ccc(Cl)cc1

>  <Tested target>
MCF7

>  <Result comparator>
=

>  <Recorded value>
4.59

$$$$
>  <Compound>
COc1ccc([P+](CCCCCOC(=O)C(C)c2ccc(CC(C)C)cc2)(c2ccc(OC)cc2)c2ccc(OC)cc2)cc1 (stereo not given)

>  <Tested target>
MCF7

>  <Result comparator>
=

>  <Recorded value>
4.49

$$$$

// data source = ChEMBL document CHEMBL5143677
